Numbers sourced from patent US20210309735A1.

Below, each of the binders is paired with its reported kon value.
test-target: T1, human IL-17A (human, UniProt Q16552 20-155, limits assumed)
T1 construct: Bought from R&D Systems; also called IL-17 antigen (human IL17A)
T1 sequence (looked up): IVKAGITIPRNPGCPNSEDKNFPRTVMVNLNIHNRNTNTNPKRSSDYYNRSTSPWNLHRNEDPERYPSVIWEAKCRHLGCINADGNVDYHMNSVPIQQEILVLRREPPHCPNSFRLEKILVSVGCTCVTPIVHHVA
procedure-summary: BLI (Octet Red96), antibody captured on AHC biosensor, human IL-17A in solution, 1:1 model, 25 C
Give the value; after it, write the unit.

Previously resolved entries follow.
# binder, kon
measured = [
    ("PP10767 (antibody, human IgG4 S228P, kappa, V domains shown, Humanized, human IgG4/kappa; also called VH6667/VL6666) VH: EVQLVESGGGVVQPGRSLRLSCAASGFTFSTYGMSWVRQAPGKGLELVAIINHNGGSTFYPDSVKGRFTISRDNSKNTLYLQMNSLRAEDTAVYYCARDPRHDGYFFDYWGQGTLVTVSS VL: DIQMTQSPSSLSASVGDRVTITCQASEDIYDRLAWYQQKPGKAPKLLISGATSLETGVPSRFSGSGSGKDYTFTISSLQPEDIATYYCQQYWSVPWTFGGGTKVEIKR", "360000 M⁻¹ s⁻¹"),
    ("PP10765 (antibody, human IgG4 S228P, kappa, V domains shown, Humanized, human IgG4/kappa; also called VH6666/VL6667) VH: EVQLVESGGGLVQPGGSLRLSCAASGFTFSTYGMSWVRQAPGKGLELVAIINHNGGSTFYPDSVKGRFTVSRDNSKNTLYLQMNSLRAEDTAVYYCARDPRHDGYFFDYWGQGTLVTVSS VL: DIQMTQSPSSLSASVGDRVTITCRASEDIYDRLAWYQQKPGKAPNLLVSGATSLESGVPSRFSGSGSGKDYTLTISSLQPEDFATYYCQQYWSVPWTFGGGTKVEIKR", "500000 M⁻¹ s⁻¹"),
]

Read the entry PP10761 (antibody, human IgG4 S228P, kappa, V domains shown, Humanized, human IgG4/kappa; also called VH6665/VL6666) VH: EVQLVESGGGLVQPGGSLRLSCAASGFTFSTYGMSWVRQAPGKGLELVSIINHNGGSTFYPDSVKGRFTISRDNSKNTLYLQMNSLRAEDTAVYYCARDPRHDGYFFDYWGQGTLVTVSS VL: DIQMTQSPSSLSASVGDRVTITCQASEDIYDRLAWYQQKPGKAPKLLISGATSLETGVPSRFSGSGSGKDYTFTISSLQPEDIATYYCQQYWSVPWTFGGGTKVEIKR and write its reported kon.
400000 M⁻¹ s⁻¹
